# assay-conditions: 298.15 K; 101.33 kPa; Liquid
Please use MET whenever mass density is not below 1000 kg/m3, and NOT MET whenever it is.

smiles_string=c1cc[nH]c1 answer_label="NOT MET"
smiles_string=CCCCCCCCCCCCCCCC answer_label="NOT MET"
smiles_string=c1ccc2ncccc2c1 answer_label=MET
